tested on: 276233-004-R-J1-PDC complex spheroid viability; test: Anticancer human tumor 276233-004-R-J1-PDC patient-derived colon adenocarcinoma cell line growth inhibition [GQUAD]; details: second compound 1 µM; first compound 0.000999 µM; active compounds read low
Consider the cut-off 70%. If the recorded viability, T/C is strictly smaller, the label is true (1); if not, the label is false (0).

[[record]]
molecule = "CCc1c2c(nc3ccc(O)cc13)-c1cc3c(c(=O)n1C2)COC(=O)[C@]3(O)CC + CN(C)c1ccc(Nc2c3ccc(NC(=O)CCN4CCCC4)cc3nc3cc(NC(=O)CCN4CCCC4)ccc23)cc1"
group_label = "true (1)"

[[record]]
molecule = "CCc1c2c(nc3ccc(O)cc13)-c1cc3c(c(=O)n1C2)COC(=O)[C@]3(O)CC + Cc1[nH]c2ccc(F)cc2c1-c1nc2c3cccnc3c3ncccc3c2[nH]1"
group_label = "true (1)"

[[record]]
molecule = "Cc1[nH]c2ccccc2c1CCNCc1ccc(/C=C/C(=O)NO)cc1 + Cc1[nH]c2ccc(F)cc2c1-c1nc2c3cccnc3c3ncccc3c2[nH]1"
group_label = "true (1)"

[[record]]
molecule = "CCc1c2c(nc3ccc(O)cc13)-c1cc3c(c(=O)n1C2)COC(=O)[C@]3(O)CC + Cc1cnc(CNC(=O)c2c(=O)c3ccc(N4CCCN(C)CC4)nc3n3c2sc2ccccc23)cn1"
group_label = "false (0)"

[[record]]
molecule = "CC[C@@]1(O)C(=O)OCc2c1cc1n(c2=O)Cc2cc3c(CN(C)C)c(O)ccc3nc2-1 + CN(C)c1ccc(Nc2c3ccc(NC(=O)CCN4CCCC4)cc3nc3cc(NC(=O)CCN4CCCC4)ccc23)cc1"
group_label = "true (1)"

[[record]]
molecule = "Cn1ncnc1[C@H]1c2n[nH]c(=O)c3cc(F)cc(c23)N[C@@H]1c1ccc(F)cc1 + Cc1[nH]c2ccc(F)cc2c1-c1nc2c3cccnc3c3ncccc3c2[nH]1"
group_label = "true (1)"

[[record]]
molecule = "Cn1ncnc1[C@H]1c2n[nH]c(=O)c3cc(F)cc(c23)N[C@@H]1c1ccc(F)cc1 + CN(C)c1ccc(Nc2c3ccc(NC(=O)CCN4CCCC4)cc3nc3cc(NC(=O)CCN4CCCC4)ccc23)cc1"
group_label = "true (1)"

[[record]]
molecule = "CC[C@@]1(O)C(=O)OCc2c1cc1n(c2=O)Cc2cc3c(CN(C)C)c(O)ccc3nc2-1 + Cc1cnc(CNC(=O)c2c(=O)c3ccc(N4CCCN(C)CC4)nc3n3c2sc2ccccc23)cn1"
group_label = "false (0)"

[[record]]
molecule = "Cc1[nH]c2ccccc2c1CCNCc1ccc(/C=C/C(=O)NO)cc1 + CN(C)c1ccc(Nc2c3ccc(NC(=O)CCN4CCCC4)cc3nc3cc(NC(=O)CCN4CCCC4)ccc23)cc1"
group_label = "true (1)"


====

system: 276233-004-R-J1-PDC complex spheroid viability; assay: Anticancer human tumor 276233-004-R-J1-PDC cell line growth inhibition [GQUAD]; details: second compound 10 µM; first compound 3.16 µM; active means viability on the fitted dose curve at most 10% of control; inactive means the rest;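 further: spheroids exposed to drugs for seven days; 100% = DMSO vehicle control viability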
Outcomes: active, inactive

[[record]]
compound = "COc1ncnc(C2CC2)c1-c1ncc2cnn(Cc3ccc(-c4nc(C(F)(F)F)cn4C(C)C)cc3)c2n1 + Cc1cnc(CNC(=O)c2c(=O)c3ccc(N4CCCN(C)CC4)nc3n3c2sc2ccccc23)cn1"
measured_on = "276233-004-R-J1-PDC complex spheroid viability"
group_label = "inactive"

[[record]]
compound = "Nc1ccn(C2OC(CO)C(O)C2(F)F)c(=O)n1 (stereo not given) + CN(C)c1ccc(Nc2c3ccc(NC(=O)CCN4CCCC4)cc3nc3cc(NC(=O)CCN4CCCC4)ccc23)cc1"
measured_on = "276233-004-R-J1-PDC complex spheroid viability"
group_label = "inactive"

[[record]]
compound = "C=CCn1c(=O)c2cnc(Nc3ccc(N4CCN(C)CC4)cc3)nc2n1-c1cccc(C(C)(C)O)n1 + CN(C)c1ccc(Nc2c3ccc(NC(=O)CCN4CCCC4)cc3nc3cc(NC(=O)CCN4CCCC4)ccc23)cc1"
measured_on = "276233-004-R-J1-PDC complex spheroid viability"
group_label = "inactive"

[[record]]
compound = "O=C(NO)c1cnc(N2CCN(S(=O)(=O)c3ccc4ccccc4c3)CC2)nc1 + Cc1cnc(CNC(=O)c2c(=O)c3ccc(N4CCCN(C)CC4)nc3n3c2sc2ccccc23)cn1"
measured_on = "276233-004-R-J1-PDC complex spheroid viability"
group_label = "active"

[[record]]
compound = "CC1COCCN1c1cc(C2(O)CC3CCC(C2)O3)c2cnn(-c3ccn[nH]3)c2n1 (stereo not given) + Cc1cnc(CNC(=O)c2c(=O)c3ccc(N4CCCN(C)CC4)nc3n3c2sc2ccccc23)cn1"
measured_on = "276233-004-R-J1-PDC complex spheroid viability"
group_label = "inactive"


====

Documented viability, T/C across a set of compounds
tested on: 276233-004-R-J1-PDC complex spheroid viability; assay: Anticancer human tumor 276233-004-R-J1-PDC cell line growth inhibition [GQUAD]; details: second compound 3.16 µM; first compound 1 µM; active compounds read low;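 further: spheroids exposed to drugs for seven days; 100% = DMSO vehicle control viability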
endpoint label: viability, T/C (%)

[[record]]
compound = "C=CC(=O)N1CCN(c2nc(=O)n(-c3c(C)ccnc3C(C)C)c3nc(-c4c(O)cccc4F)c(F)cc23)C(C)C1 (stereo not given) + Cc1[nH]c2ccc(F)cc2c1-c1nc2c3cccnc3c3ncccc3c2[nH]1"
measured_on = "276233-004-R-J1-PDC complex spheroid viability"
endpoint_label = "viability, T/C"
value_reported = 52.3

[[record]]
compound = "O=C(c1cc(Cc2n[nH]c(=O)c3ccccc23)ccc1F)N1CCN(C(=O)C2CC2)CC1 + Cc1[nH]c2ccc(F)cc2c1-c1nc2c3cccnc3c3ncccc3c2[nH]1"
measured_on = "276233-004-R-J1-PDC complex spheroid viability"
endpoint_label = "viability, T/C"
value_reported = 55

[[record]]
compound = "CC(C)n1c(=O)n(C)c2cnc3cc(F)c(-c4ccc(OCCCN5CCCCC5)nc4)cc3c21 + Cc1cnc(CNC(=O)c2c(=O)c3ccc(N4CCCN(C)CC4)nc3n3c2sc2ccccc23)cn1"
measured_on = "276233-004-R-J1-PDC complex spheroid viability"
endpoint_label = "viability, T/C"
value_reported = 71.9

[[record]]
compound = "COc1ncnc(C2CC2)c1-c1ncc2cnn(Cc3ccc(-c4nc(C(F)(F)F)cn4C(C)C)cc3)c2n1 + Cc1[nH]c2ccc(F)cc2c1-c1nc2c3cccnc3c3ncccc3c2[nH]1"
measured_on = "276233-004-R-J1-PDC complex spheroid viability"
endpoint_label = "viability, T/C"
value_reported = 14.9

[[record]]
compound = "C=CC(=O)N1CCN(c2nc(=O)n(-c3c(C)ccnc3C(C)C)c3nc(-c4c(O)cccc4F)c(F)cc23)C(C)C1 (stereo not given) + CN(C)c1ccc(Nc2c3ccc(NC(=O)CCN4CCCC4)cc3nc3cc(NC(=O)CCN4CCCC4)ccc23)cc1"
measured_on = "276233-004-R-J1-PDC complex spheroid viability"
endpoint_label = "viability, T/C"
value_reported = 44.6


====

tested on: 276233-004-R-J1-PDC complex spheroid viability; assay: Anticancer human tumor 276233-004-R-J1-PDC cell line growth inhibition [GQUAD]; details: second compound 0.316 µM; first compound 0.0316 µM; active compounds read low;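 further: spheroids exposed to drugs for seven days; 100% = DMSO vehicle control viability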
Documented viability, T/C across a set of molecules
endpoint label: viability, T/C (%)

[[record]]
molecule = "O=C(c1cc(Cc2n[nH]c(=O)c3ccccc23)ccc1F)N1CCN(C(=O)C2CC2)CC1 + Cc1cnc(CNC(=O)c2c(=O)c3ccc(N4CCCN(C)CC4)nc3n3c2sc2ccccc23)cn1"
value_reported = 96

[[record]]
molecule = "CC1COCCN1c1cc(C2(O)CC3CCC(C2)O3)c2cnn(-c3ccn[nH]3)c2n1 (stereo unspecified) + Cc1[nH]c2ccc(F)cc2c1-c1nc2c3cccnc3c3ncccc3c2[nH]1"
value_reported = 87.2

[[record]]
molecule = "CCCS(=O)(=O)Nc1ccc(F)c(C(=O)c2c[nH]c3ncc(-c4ccc(Cl)cc4)cc23)c1F + Cc1[nH]c2ccc(F)cc2c1-c1nc2c3cccnc3c3ncccc3c2[nH]1"
value_reported = 74.3

[[record]]
molecule = "C#Cc1c(F)ccc2cc(O)cc(-c3ncc4c(N5CC6CCC(C5)N6)nc(OCC56CCCN5CC(F)C6)nc4c3F)c12 (stereo unspecified) + Cc1[nH]c2ccc(F)cc2c1-c1nc2c3cccnc3c3ncccc3c2[nH]1"
value_reported = 68.4

[[record]]
molecule = "CC1COCCN1c1cc(C2(O)CC3CCC(C2)O3)c2cnn(-c3ccn[nH]3)c2n1 (stereo unspecified) + CN(C)c1ccc(Nc2c3ccc(NC(=O)CCN4CCCC4)cc3nc3cc(NC(=O)CCN4CCCC4)ccc23)cc1"
value_reported = 64.9

[[record]]
molecule = "CC1COCCN1c1cc(-c2ccnn2C)c2ccnc(-c3ccn[nH]3)c2n1 (stereo unspecified) + CN(C)c1ccc(Nc2c3ccc(NC(=O)CCN4CCCC4)cc3nc3cc(NC(=O)CCN4CCCC4)ccc23)cc1"
value_reported = 77.9

[[record]]
molecule = "CC1COCCN1c1cc(-c2ccnn2C)c2ccnc(-c3ccn[nH]3)c2n1 (stereo unspecified) + Cc1cnc(CNC(=O)c2c(=O)c3ccc(N4CCCN(C)CC4)nc3n3c2sc2ccccc23)cn1"
value_reported = 73.1

[[record]]
molecule = "CC(C)n1c(=O)n(C)c2cnc3cc(F)c(-c4ccc(OCCCN5CCCCC5)nc4)cc3c21 + Cc1[nH]c2ccc(F)cc2c1-c1nc2c3cccnc3c3ncccc3c2[nH]1"
value_reported = 88.1

[[record]]
molecule = "C=CC(=O)N1CCN(c2nc(=O)n(-c3c(C)ccnc3C(C)C)c3nc(-c4c(O)cccc4F)c(F)cc23)C(C)C1 (stereo unspecified) + CN(C)c1ccc(Nc2c3ccc(NC(=O)CCN4CCCC4)cc3nc3cc(NC(=O)CCN4CCCC4)ccc23)cc1"
value_reported = 67.9

[[record]]
molecule = "O=c1[nH]cc(F)c(=O)[nH]1 + Cc1cnc(CNC(=O)c2c(=O)c3ccc(N4CCCN(C)CC4)nc3n3c2sc2ccccc23)cn1"
value_reported = 87.4

[[record]]
molecule = "CC(C)(O)C1CCC(Nc2ccc3ncc(-c4cccc(C(F)(F)F)c4)n3n2)CC1 (stereo unspecified) + CN(C)c1ccc(Nc2c3ccc(NC(=O)CCN4CCCC4)cc3nc3cc(NC(=O)CCN4CCCC4)ccc23)cc1"
value_reported = 55.9

